Reference source: PubChem BioAssay

- TARGET_OF_ASSAY: L-lactate dehydrogenase (Plasmodium falciparum (isolate CDC / Honduras)) (UniProt Q27743)
- Sequence (Q27743 whole entry, looked up): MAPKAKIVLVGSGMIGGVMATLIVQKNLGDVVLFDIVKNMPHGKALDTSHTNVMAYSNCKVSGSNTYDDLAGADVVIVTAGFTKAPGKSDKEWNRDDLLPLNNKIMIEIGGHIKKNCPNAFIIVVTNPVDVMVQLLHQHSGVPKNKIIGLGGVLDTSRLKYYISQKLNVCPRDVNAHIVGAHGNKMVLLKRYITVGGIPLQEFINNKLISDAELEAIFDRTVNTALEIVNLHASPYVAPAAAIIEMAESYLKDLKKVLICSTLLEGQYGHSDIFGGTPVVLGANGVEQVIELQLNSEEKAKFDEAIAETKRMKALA
- MEASUREMENT_DESCRIPTION: PfLDH activity inhibition – cell lysate, 3D7 strain, counter-screen for P. falciparum growth inhibition project (AID 2304);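 further: 0% = vehicle and 100% = reference inhibitor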
- STUDY_CONDITIONS: P. falciparum 3D7 crude extract, LDH APAD/NBT absorbance; at 2 µM; stronger effect = higher value
Calls of active or inactive are those of the source. How the calls were made is not given here.
PROPERTY_MEASURED: inhibition

Worked cases, answers included:
COMPOUND | PROPERTY_MEASURED | VALUE_OBSERVED
Nc1c2c(nc3ccc(C(=O)Nc4cc(I)c(O)c(I)c4)cc13)CCCC2 | inhibition | 0% (inactive)
Cc1cc(N[C@@H](C)C(=O)Nc2ccccc2)nc(NCCc2ccc(F)cc2)n1 | inhibition | -2% (inactive)
CNC(=O)c1cc(F)c(F)cc1Nc1nc(Nc2cccc(CS(C)(=O)=O)c2)ncc1Cl | inhibition | 3% (inactive)
COc1ccc(C(=O)Nc2ccc(Nc3nc(C)cc(N(C)C)n3)cc2)c(OC)c1 | inhibition | 0% (inactive)
O=C(/C=C/c1ccc(C(F)(F)F)cc1)NCCCCCN1CCN(C(=O)Nc2ccc(Cl)c(Cl)c2)CC1 | inhibition | 5% (inactive)

Measured inhibition of "O=C(Nc1ccc(Cl)cc1)c1ccc(CN2CCCN(Cc3ccsc3)CC2)cc1" : 4% (inactive)
